The measurements presented in this section are drawn from patent US20120207760A1.

OD450 by entry:
# experimental target: hemagglutinin (HA) of influenza A/Japan/305/57 H2N2 (Influenza A virus A/Japan/305/1957 …, UniProt P03451 16-562)
# experiment description: ELISA, inactivated whole virions coated; transfection supernatant set 3
The figure you give is taken to be in OD450; do not add the unit.

TCN-523 (5248_A17) (antibody, V domains shown) VH: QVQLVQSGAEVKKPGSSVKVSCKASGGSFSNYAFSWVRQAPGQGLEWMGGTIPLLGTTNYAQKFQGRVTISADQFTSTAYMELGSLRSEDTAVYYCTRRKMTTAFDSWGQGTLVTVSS VL: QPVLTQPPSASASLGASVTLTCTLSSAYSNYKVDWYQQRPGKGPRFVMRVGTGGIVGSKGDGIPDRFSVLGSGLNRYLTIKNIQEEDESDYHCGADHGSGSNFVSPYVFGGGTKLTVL: 3.47

Answer with reported OD450 of TCN-533 (5256_A17) (antibody, V domains shown) VH: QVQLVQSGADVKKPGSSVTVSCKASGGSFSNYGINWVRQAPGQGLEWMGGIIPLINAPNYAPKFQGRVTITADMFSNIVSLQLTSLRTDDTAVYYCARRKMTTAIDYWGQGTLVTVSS VL: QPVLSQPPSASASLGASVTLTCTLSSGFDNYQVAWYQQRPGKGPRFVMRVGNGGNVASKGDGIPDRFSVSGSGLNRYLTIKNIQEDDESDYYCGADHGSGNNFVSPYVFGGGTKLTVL
3.65
